Origin of the recorded values: ChEMBL document CHEMBL4038312

Would you kindly list Papp B→A for each of these compounds?
Test: Apparent permeability from basolateral to apical side in MDCK cells harboring MDR1
Format: ADME, cell-based, Canis lupus familiaris
Details: dog
Number first, unit second.

Solved cases below.
>>> observed_value("O=S(=O)(Nc1nncs1)c1cc(Cl)c(Oc2ccc(C(F)(F)F)cc2-c2ccnnc2)cc1F")
"1.1 ×10⁻⁶ cm/s"
>>> observed_value("CCN1CC(n2nccc2-c2cc(Cl)ccc2Oc2ccc(S(=O)(=O)Nc3cscn3)cc2C#N)C1")
"11 ×10⁻⁶ cm/s"

Here is another compound to look at.
Reported Papp B→A for Nc1[nH]ncc1-c1cc(Cl)ccc1Oc1cc(F)c(S(=O)(=O)Nc2cscn2)cc1Cl : what is it? 6.3 ×10⁻⁶ cm/s

====

Would you kindly list Cmax for each of these molecules?
Assay: Cmax in rat at 3 mg/kg, po
Format: ADME, organism-based
Set-up: dose 3 mg/kg, route oral
Details: in vivo
One number for each entry, in ng/mL.

>>> observed_value("N#Cc1cc(S(=O)(=O)Nc2ncns2)ccc1Oc1ccc(C(F)(F)F)cc1-c1ccnnc1")
1

Each molecule below has a reported value. Please supply its Cmax.
1. O=S(=O)(Nc1nncs1)c1cc(Cl)c(Oc2ccc(C(F)(F)F)cc2-c2ccnnc2)cc1F [PF-05186462]
2. Cc1[nH]ncc1-c1cc(C(F)(F)F)ccc1Oc1ccc(S(=O)(=O)Nc2ncns2)cc1C#N
3. CCN1CC(n2nccc2-c2cc(Cl)ccc2Oc2ccc(S(=O)(=O)Nc3cscn3)cc2C#N)C1 [PF-05150122]
4. Nc1[nH]ncc1-c1cc(Cl)ccc1Oc1cc(F)c(S(=O)(=O)Nc2cscn2)cc1Cl [PF-05089771]

[73.2, 4, 92.7, 541]

====

Assay: Oral bioavailability in dog at 3 mg/kg
Assay type: ADME, organism-based, Canis lupus familiaris
Conditions: in vivo
measurement type: bioavailability (%)
Numbers only, in %.

Reported bioavailability for O=S(=O)(Nc1nncs1)c1cc(Cl)c(Oc2ccc(C(F)(F)F)cc2-c2ccnnc2)cc1F : what is it? 54

====

Experiment: Permeability in RRCK cells
Type: ADME, cell-based, Canis lupus familiaris, MDCKII-LE
Settings: dog, MDCK; read-out: permeability
Lab note: compare Papp against 2 ×10⁻⁶ cm/s. Equal or greater, write Criterion met. Smaller, write Criterion not met.

>>> group_label("Cc1[nH]ncc1-c1cc(C(F)(F)F)ccc1Oc1ccc(S(=O)(=O)Nc2ncns2)cc1C#N")
"Criterion not met"

Could you tell me if the measured Papp of O=S(=O)(Nc1nncs1)c1cc(Cl)c(Oc2ccc(C(F)(F)F)cc2-c2ccnnc2)cc1F reaches 2 ×10⁻⁶ cm/s or more? Criterion not met

Could you tell me if the measured Papp of Nc1[nH]ncc1-c1cc(Cl)ccc1Oc1cc(F)c(S(=O)(=O)Nc2cscn2)cc1Cl reaches 2 ×10⁻⁶ cm/s or more? Criterion met

Could you tell me if the measured Papp of N#Cc1cc(S(=O)(=O)Nc2ncns2)ccc1Oc1ccc(Cl)cc1-c1cn[nH]c1 reaches 2 ×10⁻⁶ cm/s or more? Criterion met

Could you tell me if the measured Papp of CCN1CC(n2nccc2-c2cc(Cl)ccc2Oc2ccc(S(=O)(=O)Nc3cscn3)cc2C#N)C1 reaches 2 ×10⁻⁶ cm/s or more? Criterion met

Could you tell me if the measured Papp of N#Cc1cc(S(=O)(=O)Nc2ncns2)ccc1Oc1ccc(C(F)(F)F)cc1-c1ccnnc1 reaches 2 ×10⁻⁶ cm/s or more? Criterion not met

====

Test: Cmax in dog at […], po
Format: ADME, organism-based, Canis lupus familiaris
Set-up: dose 0.13 mg/kg, route oral
Details: in vivo
measurement type: Cmax (µg/mL)
Numbers only, in µg/mL.

Reported Cmax for N#Cc1cc(S(=O)(=O)Nc2ncns2)ccc1Oc1ccc(Cl)cc1-c1cn[nH]c1 : what is it? 0.018

====

Assay: Solubility of the compound at pH 6.5
Format: physicochemical
Settings: buffer
Would you kindly list solubility for each of these molecules?

>>> observed_value("Cc1[nH]ncc1-c1cc(C(F)(F)F)ccc1Oc1ccc(S(=O)(=O)Nc2ncns2)cc1C#N")
"> 300 µM"

Each molecule below has a reported value. Please supply its solubility.
1. N#Cc1cc(S(=O)(=O)Nc2ncns2)ccc1Oc1ccc(C(F)(F)F)cc1-c1ccnnc1
2. CCN1CC(n2nccc2-c2cc(Cl)ccc2Oc2ccc(S(=O)(=O)Nc3cscn3)cc2C#N)C1
3. Nc1[nH]ncc1-c1cc(Cl)ccc1Oc1cc(F)c(S(=O)(=O)Nc2cscn2)cc1Cl
4. O=S(=O)(Nc1nncs1)c1cc(Cl)c(Oc2ccc(C(F)(F)F)cc2-c2ccnnc2)cc1F
5. N#Cc1cc(S(=O)(=O)Nc2ncns2)ccc1Oc1ccc(Cl)cc1-c1cn[nH]c1

1. > 300 µM
2. > 262 µM
3. < 0.3 µM
4. 286 µM
5. 259 µM

====

Assay: Drug excretion in iv dosed bile duct cannulated rat bile after 6 hrs
Format: ADME, organism-based
Conditions: read-out: Drug excretion
measurement type: dose excreted at 6 h (%)
Numbers only, in %.

Reported dose excreted at 6 h for N#Cc1cc(S(=O)(=O)Nc2ncns2)ccc1Oc1ccc(C(F)(F)F)cc1-c1ccnnc1 : what is it? 73

====

Assay: physchem
Lab note: compare pKa against 4. Equal or greater, write met. Smaller, write not met.

>>> group_label("CCN1CC(n2nccc2-c2cc(Cl)ccc2Oc2ccc(S(=O)(=O)Nc3cscn3)cc2C#N)C1")
"met"
>>> group_label("N#Cc1cc(S(=O)(=O)Nc2ncns2)ccc1Oc1ccc(Cl)cc1-c1cn[nH]c1")
"not met"
>>> group_label("Nc1n[nH]cc1-c1cc(C(F)(F)F)ccc1Oc1cc(F)c(S(=O)(=O)Nc2cscn2)cc1Cl")
"met"
>>> group_label("Cn1nccc1-c1cc(Cl)ccc1Oc1cc(F)c(S(=O)(=O)Nc2nncs2)cc1Cl")
"met"
>>> group_label("Cc1[nH]ncc1-c1cc(C(F)(F)F)ccc1Oc1ccc(S(=O)(=O)Nc2ncns2)cc1C#N")
"not met"

Note: attention shifts to another entry.
Could you tell me if the measured pKa of Cn1nccc1-c1cc(Cl)ccc1Oc1cc(F)c(S(=O)(=O)Nc2ncns2)cc1F reaches 4 or more? not met

====

Test: Volume of distribution at steady state in human at 100 ug, iv
Assay type: ADME
Settings: in vivo, read-out: Vdss
Would you kindly list Vd for each of these compounds?
Answers are plain numbers, in L/kg.

Solved cases below.
>>> observed_value("O=S(=O)(Nc1nncs1)c1cc(Cl)c(Oc2ccc(C(F)(F)F)cc2-c2ccnnc2)cc1F")
0.18
>>> observed_value("Nc1[nH]ncc1-c1cc(Cl)ccc1Oc1cc(F)c(S(=O)(=O)Nc2cscn2)cc1Cl")
0.15

Here is another compound to look at.
Reported Vd for CCN1CC(n2nccc2-c2cc(Cl)ccc2Oc2ccc(S(=O)(=O)Nc3cscn3)cc2C#N)C1 : what is it? 0.41

====

Would you kindly list bioavailability for each of these compounds?
Experiment: in vivo
Details: rat, po, 3 mg/kg
Give bare numbers, in %.

>>> observed_value("CCN1CC(n2nccc2-c2cc(Cl)ccc2Oc2ccc(S(=O)(=O)Nc3cscn3)cc2C#N)C1")
68

Reported bioavailability for O=S(=O)(Nc1nncs1)c1cc(Cl)c(Oc2ccc(C(F)(F)F)cc2-c2ccnnc2)cc1F : what is it? 16

====

Would you kindly list Tmax for each of these molecules?
Experiment: Tmax in rat at 3 mg/kg, po
Format: ADME, organism-based
Settings: in vivo
Answers are plain numbers, in h.

Each molecule below has a reported value. Please supply its Tmax.
1. Nc1[nH]ncc1-c1cc(Cl)ccc1Oc1cc(F)c(S(=O)(=O)Nc2cscn2)cc1Cl
2. CCN1CC(n2nccc2-c2cc(Cl)ccc2Oc2ccc(S(=O)(=O)Nc3cscn3)cc2C#N)C1
3. O=S(=O)(Nc1nncs1)c1cc(Cl)c(Oc2ccc(C(F)(F)F)cc2-c2ccnnc2)cc1F

1: 2; 2: 0.3; 3: 1.5

====

Would you kindly list logD for each of these compounds?
Assay: physchem
Details: octanol/water, pH 7.4
One number for each entry.

Each compound below has a reported value. Please supply its logD.
1. CCN1CC(n2nccc2-c2cc(Cl)ccc2Oc2ccc(S(=O)(=O)Nc3cscn3)cc2C#N)C1
2. Cc1[nH]ncc1-c1cc(C(F)(F)F)ccc1Oc1ccc(S(=O)(=O)Nc2ncns2)cc1C#N
3. N#Cc1cc(S(=O)(=O)Nc2ncns2)ccc1Oc1ccc(Cl)cc1-c1cn[nH]c1

1: 1.4; 2: 2; 3: 1.7

Each compound below has a reported value. Please supply its logD.
1. O=S(=O)(Nc1cscn1)c1cc(Cl)c(Oc2ccc(C(F)(F)F)cc2-c2ccnnc2)cc1F
2. N#Cc1cc(S(=O)(=O)Nc2ncns2)ccc1Oc1ccc(Cl)cc1-c1ccn[nH]1
3. N#Cc1cc(S(=O)(=O)Nc2ncns2)ccc1Oc1ccc(C(F)(F)F)cc1-c1cccnn1

1: 1.6; 2: 1.6; 3: 0.7

====

Assay: physchem
Would you kindly list pKa for each of these compounds?
Numbers only.

Solved cases below.
>>> observed_value("O=S(=O)(Nc1nncs1)c1cc(Cl)c(Oc2ccc(C(F)(F)F)cc2-c2ccnnc2)cc1F")
4.3
>>> observed_value("Cn1nccc1-c1cc(Cl)ccc1Oc1ccc(S(=O)(=O)Nc2ncns2)cc1C#N")
3.5
>>> observed_value("Cn1nccc1-c1cc(Cl)ccc1Oc1ccc(S(=O)(=O)Nc2nncs2)cc1C#N")
4.5
>>> observed_value("Cn1nccc1-c1cc(Cl)ccc1Oc1ccc(S(=O)(=O)Nc2ncns2)cc1F")
3.5

Here is another compound to look at.
Reported pKa for Nc1[nH]ncc1-c1cc(Cl)ccc1Oc1cc(F)c(S(=O)(=O)Nc2cscn2)cc1Cl : what is it? 6.3
